assay: qHTS assay to identify small molecule agonists of the AP-1 signaling pathway - cell viability counter screen (AID 1159525); conditions: ME-180 (cervical carcinoma) AP-1-bla cells viability, ATP luminescence, 5 h; series mostly up to 76.8 µM; also: nearly all actives have a fitted effect of over 55% in size
Results filed as inconclusive are left out. Activity calls are given as the source filed them. Calls follow the shape of the full dose curve.
Classes used: y for active, n for inactive

# COMPOUND, CATEGORY
data = [
    ("CCC(C)c1cc(C(C)(C)C)cc(-n2nc3ccccc3n2)c1O (stereo not drawn)", "n"),
    ("O=[N+]([O-])c1ccc(Oc2ccc(C(F)(F)F)cc2[N+](=O)[O-])cc1", "n"),
    ("CCC(C)(C)C(=O)OC1=C(c2ccc(Cl)cc2Cl)C(=O)OC12CCCCC2", "n"),
    ("CC(C)(c1ccc(O)c(-c2ccccc2)c1)c1ccc(O)c(-c2ccccc2)c1", "y"),
    ("O=C(NC(=O)c1c(F)cccc1F)Nc1cc(Cl)c(OC(F)(F)C(F)F)c(Cl)c1", "n"),
    ("CCCN(CCC)c1c([N+](=O)[O-])cc(S(N)(=O)=O)cc1[N+](=O)[O-]", "y"),
    ("CCN", "n"),
    ("CC(C)CBr", "n"),
    ("COC(=O)N(C(=O)N1CO[C@@]2(C(=O)OC)Cc3cc(Cl)ccc3C2=N1)c1ccc(OC(F)(F)F)cc1", "n"),
    ("COc1cc(N)c(Cl)cc1C(=O)NC1CN2CCC1CC2 (stereo not drawn)", "n"),
    ("O=C1C=CC(=O)c2ccccc21", "y"),
    ("Oc1ccccc1Br", "n"),
    ("CN(C)CCc1c[nH]c2cccc(O)c12", "n"),
    ("CC(Cc1ccc(C(C)(C)C)cc1)CN1C[C@@H](C)O[C@@H](C)C1 (stereo partly drawn)", "n"),
    ("CC(C)CC(C)N (stereo not drawn)", "n"),
    ("CC(C)(C)OO", "n"),
    ("COc1cccc2c1C(=O)c1c(O)c3c(c(O)c1C2=O)C[C@@](O)(C(=O)CO)CC3OC1CC(N2CCOC(OC)C2)C(O)C(C)O1 (stereo partly drawn)", "n"),
    ("CN(CCCC(=O)c1cccnc1)N=O", "n"),
]

====

test: A CellTox Green Cytotoxicity Assay to monitor cytotoxicity in HepG2 cells - 32 hour (AID 1224883); details: CellTox Green fluorescence; series mostly up to 76.8 µM; also: nearly all actives have a fitted effect of over 50% in size
Records with an inconclusive call do not appear. The source made the active and inactive calls. Calls follow the shape of the dose curve; as a rule, active = well fitted activation curve with a large enough effect in the repeat runs; inconclusive = weak or mixed curves; inactive = flat fitted curve, though single readings scatter.
Outcome codes: active, inactive

# MOLECULE, CATEGORY
rows = [
    ("CCCN(CCC)c1c([N+](=O)[O-])cc(S(N)(=O)=O)cc1[N+](=O)[O-]", "active"),
    ("N#Cc1ccccc1N", "inactive"),
    ("Oc1cccc(-c2ccccc2)c1", "inactive"),
    ("O=C1NCN(c2ccccc2)C12CCN(CC1COc3ccccc3O1)CC2 (stereo not given)", "inactive"),
    ("O=S(=O)(c1ccc(Cl)cc1)c1ccc(Cl)cc1", "inactive"),
    ("Oc1c(Cl)c(Cl)cc(Cl)c1Cl", "inactive"),
    ("CC(C)[C@H](C(=O)OC(C#N)c1cccc(Oc2ccccc2)c1)c1ccc(OC(F)F)cc1 (stereo not given in full)", "inactive"),
    ("COc1cc(N)c(Cl)cc1C(=O)NC1CN2CCC1CC2 (stereo not given)", "inactive"),
    ("CC(C)CCCCCOC(=O)c1ccccc1C(=O)OCCCCCC(C)C", "inactive"),
    ("CC(O)C#N (stereo not given)", "inactive"),
]

====

Assay: qHTS RealTime-Glo MT Cell Viability Assay in HEK293 cells - 32 hour (AID 1224868); also: nearly all actives have a fitted effect of over 50% in size
Conditions: RealTime-Glo luminescence; series mostly up to 76.8 µM
Source text: National Center for Advancing Translational Sciences [NCATS] NIH Chemical Genomics Center [NCGC] U.S. Environmental Protection Agency [EPA] National Institutes of Environmental Health Sciences [NIEHS] National Toxicology Program [NTP] U.S. Food and Drug Administration [FDA] Measure of cell viability is critical in the cell-base assay. Analysis of cell viability is necessary for the characterization of cell responses to cytotoxic drugs and environmental stress. […]
Records with an inconclusive call do not appear. The source made the active and inactive calls. Calls come from the whole dose curve; as a rule, active = well fitted cell-killing curve with a large enough effect in the repeat runs; inconclusive = weak or mixed curves, or effect the other way; inactive = flat fitted curve, though single readings scatter.
Labels: active, inactive

# MOLECULE, CATEGORY
rows = [
    ("CCOP(=S)(OCC)SCS(=O)(=O)C(C)(C)C", "inactive"),
    ("N#CCCC(Br)(C#N)CBr (centres undefined)", "active"),
    ("FC(F)(F)c1cccc(C2=CCN(CCc3ccc4ccccc4c3)CC2)c1", "inactive"),
    ("O=C(NC(=O)c1c(F)cccc1F)Nc1cc(Cl)c(OC(F)(F)C(F)F)c(Cl)c1", "inactive"),
    ("Oc1ccc2ccc3cccc4ccc1c2c34", "active"),
    ("CC(C)(C)c1cc([N+](=O)[O-])cc(C(C)(C)C)c1O", "active"),
    ("CC1CCC(C(C)C)C(OC(=O)c2ccccc2N)C1 (centres undefined)", "active"),
    ("Nc1ccc([N+](=O)[O-])cc1Cl", "inactive"),
    ("CCCN(CCC)CCc1c[nH]c2ccccc12", "inactive"),
    ("N#Cc1ccccc1N", "inactive"),
    ("[Hg+2].[I-].[I-]", "active"),
    ("CCCCCCCCCCCCBr", "inactive"),
    ("O=C(CCCN1CCC2(CC1)C(=O)NCN2c1ccccc1)c1ccc(F)cc1", "active"),
    ("c1ccc2c(c1)[nH]c1cnccc12", "inactive"),
    ("CCOCCOC(C)=O", "inactive"),
    ("[Cl][Sn]([c]1ccccc1)([c]1ccccc1)[c]1ccccc1", "active"),
    ("COc1ccc(N)cc1N", "active"),
    ("Oc1ccccc1Br", "inactive"),
    ("CCCCCCCCCCBr", "inactive"),
]

====

test: qHTS assay to identify small molecule agonists of the androgen receptor (AR) signaling pathway in the presence of an antagonist - cell viability counter screen (AID 1259379); details: MDA-kb2 viability, CellTiter-Fluor, 16 h; series mostly up to 92.4 µM; also: nearly all actives have a fitted effect of over 25% in size
Records with an inconclusive call do not appear. Activity calls are given as the source filed them. The call rests on the fitted dose curve; in most records, active means well fitted cell-killing curve with a large enough effect in the repeat runs; inconclusive means weak or mixed curves, or effect the other way; inactive means flat fitted curve, though single readings scatter.
Possible outcomes: true (1) for active, false (0) for inactive

# STRUCTURE_AS_SMILES, CATEGORY
rows = [
    ("Cc1ccc(C(=O)Cl)cc1", "false (0)"),
    ("CC(=O)c1ccc(-c2ccccc2)cc1", "false (0)"),
    ("N#CCCSCCC#N", "false (0)"),
    ("CC(C)Oc1cccc(NC(=O)c2ccccc2C(F)(F)F)c1", "false (0)"),
    ("CCOC(=O)CC(=O)CCl", "true (1)"),
    ("Cc1cc(SCc2sc(-c3ccc(C(F)(F)F)c(F)c3)nc2C)ccc1OCC(=O)O", "false (0)"),
    ("O=c1oc2ccccc2c(O)c1Cc1c(O)c2ccccc2oc1=O", "false (0)"),
]

====

experiment: A CellTox Green Cytotoxicity Assay to monitor cytotoxicity in HepG2 cells - 8 hour (AID 1224890); conditions: CellTox Green fluorescence; series mostly up to 76.8 µM; also: nearly all actives have a fitted effect of over 45% in size
Records with an inconclusive call do not appear. Active and inactive are the calls of the source. Calls follow the shape of the dose curve; as a rule, active = well fitted activation curve with a large enough effect in the repeat runs; inconclusive = weak or mixed curves; inactive = flat fitted curve, though single readings scatter.
Classes used: active, inactive

# COMPOUND, CATEGORY
measured = [
    ("CC(O)C#N (stereo not drawn)", "inactive"),
    ("CN(C)S(=O)(=O)N(SC(F)(Cl)Cl)c1ccccc1", "inactive"),
    ("N#CSCSC#N", "active"),
    ("Oc1ccccc1Br", "inactive"),
    ("O=c1[nH]c2ccccc2n1CCCN1CCC(n2c(=O)[nH]c3cc(Cl)ccc32)CC1", "inactive"),
    ("Cc1ccc(OP(=O)(Oc2ccccc2)Oc2ccccc2)cc1", "inactive"),
    ("Cn1[nH]nnc1=S", "inactive"),
    ("BrC(Br)Br", "inactive"),
    ("BrCC(Br)c1ccccc1 (stereo not drawn)", "inactive"),
    ("O=C(CCCN1CCC2(CC1)C(=O)NCN2c1ccccc1)c1ccc(F)cc1", "inactive"),
    ("CCCCOP(=O)(CCCC)OCCCC", "inactive"),
    ("CC(C)CC(C)N (stereo not drawn)", "inactive"),
    ("CCOCn1c(-c2ccc(Cl)cc2)c(C#N)c(Br)c1C(F)(F)F", "inactive"),
    ("CCC(C)c1cc([N+](=O)[O-])cc([N+](=O)[O-])c1OC(=O)C=C(C)C (stereo not drawn)", "inactive"),
    ("ClC1=C(Cl)[C@]2(Cl)[C@@H]3[C@@H]4C[C@@H]([C@H]5O[C@@H]45)[C@@H]3[C@@]1(Cl)C2(Cl)Cl", "active"),
    ("O=C(Nc1ccc2[nH]ccc2c1)c1cc2cc(F)ccc2n1Cc1cccc(F)c1", "inactive"),
    ("CCOP(=S)(OCC)SCS(=O)(=O)C(C)(C)C", "inactive"),
    ("Cc1cc(C(F)(C(F)(F)F)C(F)(F)F)ccc1NC(=O)c1cccc(I)c1C(=O)NC(C)(C)CS(C)(=O)=O", "inactive"),
    ("Cc1cc(C)c(C2=C(OC(=O)CC(C)(C)C)C3(CCCC3)OC2=O)c(C)c1", "inactive"),
    ("CC1(C)CC/C(=C/c2ccc(Cl)cc2)C1(O)Cn1cncn1 (stereo not drawn)", "inactive"),
    ("C=CC(=O)N(C)C", "inactive"),
    ("Fc1ccc(Oc2ccnc3cc(Cl)cc(Cl)c23)cc1", "inactive"),
    ("O=C(Cl)c1ccc(Cl)cc1", "inactive"),
    ("CC(=O)/C=C/c1ccc2c(c1)OCO2", "inactive"),
    ("CC1(C)C(/C=C(\\Cl)C(F)(F)F)C1C(=O)OC(C#N)c1cccc(Oc2ccccc2)c1 (stereo not drawn)", "inactive"),
    ("CC1CCC(C(C)C)C(OC(=O)c2ccccc2N)C1 (stereo not drawn)", "inactive"),
    ("COc1cccc(C(=O)CCN[C@@H](C)[C@H](O)c2ccccc2)c1", "inactive"),
    ("COc1ccc(/C(=C/C(=O)N2CCOCC2)c2ccc(Cl)cc2)cc1OC", "inactive"),
    ("CCOP(=S)(OCC)OC(Cl)C(Cl)(Cl)Cl (stereo not drawn)", "inactive"),
    ("Nc1ccccc1C(=O)Oc1ccc2ccccc2c1", "inactive"),
    ("CC(=O)Nc1ccc2c(c1)Cc1ccccc1-2", "inactive"),
    ("C[C@]12CC[C@@H]3c4ccc(OC(=O)N(CCCl)CCCl)cc4CC[C@H]3[C@@H]1CC[C@@H]2O", "inactive"),
    ("N#Cc1ccc(O)cc1", "inactive"),
    ("O=C(O)c1cc[c]([Hg][Cl])cc1", "active"),
    ("CCCN(CCC)CCc1c[nH]c2ccccc12", "inactive"),
    ("O=S(=O)(c1ccc(Cl)cc1)c1ccc(Cl)cc1", "inactive"),
    ("ClC(Cl)=C(Cl)Cl", "inactive"),
    ("C=COCCCl", "inactive"),
    ("CC(C)(COCC1CO1)COCC1CO1 (stereo not drawn)", "inactive"),
    ("[Cl][Sb]([Cl])[Cl]", "inactive"),
    ("Cc1cccc(OP(=O)(Oc2cccc(C)c2)Oc2cccc(C)c2)c1", "inactive"),
    ("Cc1cc(N=Nc2ccccc2C)ccc1N", "inactive"),
    ("c1cc[c]([Sb]([c]2ccccc2)[c]2ccccc2)cc1", "inactive"),
]
